Recorded molar heat capacity at constant pressure for the following compounds
- assay.text: molar heat capacity at constant pressure
- recorded.conditions: 288.15 K; 100 kPa; Liquid; Small sample (50 mg) DSC

{"columns": ["compound", "molar heat capacity at constant pressure, J/K/mol"],
 "data": [
  ["CCCCn1cc[n+](C)c1.F[B-](F)(F)F [1-butyl-3-methylimidazolium tetrafluoroborate]", 362.17],
  ["CCCCCCCC[n+]1ccn(C)c1.F[B-](F)(F)F [1-methyl-3-octylimidazolium tetrafluoroborate]", 493.12],
  ["CCn1cc[n+](C)c1.F[B-](F)(F)F [1-ethyl-3-methylimidazolium tetrafluoroborate]", 301.67],
  ["CCCCCCn1cc[n+](C)c1.F[B-](F)(F)F [1-hexyl-3-methylimidazolium tetrafluoroborate]", 425]
]}

----------
Measured molar heat capacity at constant pressure by item
- assay.text: molar heat capacity at constant pressure
- recorded.conditions: 313.15 K; 8000 kPa; Liquid; Small sample (50 mg) DSC

{"columns": ["molecule", "unit.name", "molar heat capacity at constant pressure"],
 "data": [
  ["CCn1cc[n+](C)c1.F[B-](F)(F)F [1-ethyl-3-methylimidazolium tetrafluoroborate]", "J/K/mol", 310.35],
  ["CCCCCCn1cc[n+](C)c1.F[B-](F)(F)F [1-hexyl-3-methylimidazolium tetrafluoroborate]", "J/K/mol", 437.93],
  ["CCCCn1cc[n+](C)c1.F[B-](F)(F)F [1-butyl-3-methylimidazolium tetrafluoroborate]", "J/K/mol", 372.74],
  ["CCCCCCCC[n+]1ccn(C)c1.F[B-](F)(F)F [1-methyl-3-octylimidazolium tetrafluoroborate]", "J/K/mol", 509.37]
]}

----------
- assay.text: molar heat capacity at constant pressure
- recorded.conditions: 303.15 K; 8000 kPa; Liquid; Small sample (50 mg) DSC
Listing: molar heat capacity at constant pressure of selected compounds

{"columns": ["compound", "molar heat capacity at constant pressure (J/K/mol)"],
 "data": [
  ["CCn1cc[n+](C)c1.F[B-](F)(F)F [1-ethyl-3-methylimidazolium tetrafluoroborate]", 306.7],
  ["CCCCCCn1cc[n+](C)c1.F[B-](F)(F)F [1-hexyl-3-methylimidazolium tetrafluoroborate]", 432.5],
  ["CCCCCCCC[n+]1ccn(C)c1.F[B-](F)(F)F [1-methyl-3-octylimidazolium tetrafluoroborate]", 503.49],
  ["CCCCn1cc[n+](C)c1.F[B-](F)(F)F [1-butyl-3-methylimidazolium tetrafluoroborate]", 368.36]
]}

----------
- assay.text: molar heat capacity at constant pressure
- recorded.conditions: 323.15 K; 8000 kPa; Liquid; Small sample (50 mg) DSC
Reported values of molar heat capacity at constant pressure for individual entries
quantity: molar heat capacity at constant pressure (J/K/mol)

{"columns": ["molecule", "unit.name", "recorded.measurement"],
 "data": [
  ["CCn1cc[n+](C)c1.F[B-](F)(F)F [1-ethyl-3-methylimidazolium tetrafluoroborate]", "J/K/mol", 314.3],
  ["CCCCn1cc[n+](C)c1.F[B-](F)(F)F [1-butyl-3-methylimidazolium tetrafluoroborate]", "J/K/mol", 377.39],
  ["CCCCCCn1cc[n+](C)c1.F[B-](F)(F)F [1-hexyl-3-methylimidazolium tetrafluoroborate]", "J/K/mol", 443.8],
  ["CCCCCCCC[n+]1ccn(C)c1.F[B-](F)(F)F [1-methyl-3-octylimidazolium tetrafluoroborate]", "J/K/mol", 514.41]
]}

----------
- assay.text: molar heat capacity at constant pressure
- recorded.conditions: 318.15 K; 14000 kPa; Liquid; Small sample (50 mg) DSC
Recorded molar heat capacity at constant pressure by entry
quantity: molar heat capacity at constant pressure (J/K/mol)

{"columns": ["molecule", "quantity", "recorded.measurement"],
 "data": [
  ["CCn1cc[n+](C)c1.F[B-](F)(F)F [1-ethyl-3-methylimidazolium tetrafluoroborate]", "molar heat capacity at constant pressure", 312.38],
  ["CCCCn1cc[n+](C)c1.F[B-](F)(F)F [1-butyl-3-methylimidazolium tetrafluoroborate]", "molar heat capacity at constant pressure", 375.1],
  ["CCCCCCn1cc[n+](C)c1.F[B-](F)(F)F [1-hexyl-3-methylimidazolium tetrafluoroborate]", "molar heat capacity at constant pressure", 440.9],
  ["CCCCCCCC[n+]1ccn(C)c1.F[B-](F)(F)F [1-methyl-3-octylimidazolium tetrafluoroborate]", "molar heat capacity at constant pressure", 511.99]
]}

----------
- assay.text: molar heat capacity at constant pressure
- recorded.conditions: 323.15 K; 50000 kPa; Liquid; Small sample (50 mg) DSC
Overview of recorded molar heat capacity at constant pressure for various compounds
quantity: molar heat capacity at constant pressure (J/K/mol)

{"columns": ["compound", "recorded.measurement"],
 "data": [
  ["CCCCCCCC[n+]1ccn(C)c1.F[B-](F)(F)F [1-methyl-3-octylimidazolium tetrafluoroborate]", 514.44],
  ["CCn1cc[n+](C)c1.F[B-](F)(F)F [1-ethyl-3-methylimidazolium tetrafluoroborate]", 314.93],
  ["CCCCCCn1cc[n+](C)c1.F[B-](F)(F)F [1-hexyl-3-methylimidazolium tetrafluoroborate]", 444.35],
  ["CCCCn1cc[n+](C)c1.F[B-](F)(F)F [1-butyl-3-methylimidazolium tetrafluoroborate]", 377.93]
]}

----------
- assay.text: molar heat capacity at constant pressure
- recorded.conditions: 293.15 K; 30000 kPa; Liquid; Small sample (50 mg) DSC
quantity: molar heat capacity at constant pressure (J/K/mol)

{"columns": ["compound", "recorded.measurement"],
 "data": [
  ["CCn1cc[n+](C)c1.F[B-](F)(F)F [1-ethyl-3-methylimidazolium tetrafluoroborate]", 303.68],
  ["CCCCCCn1cc[n+](C)c1.F[B-](F)(F)F [1-hexyl-3-methylimidazolium tetrafluoroborate]", 427.95],
  ["CCCCCCCC[n+]1ccn(C)c1.F[B-](F)(F)F [1-methyl-3-octylimidazolium tetrafluoroborate]", 496.75],
  ["CCCCn1cc[n+](C)c1.F[B-](F)(F)F [1-butyl-3-methylimidazolium tetrafluoroborate]", 364.44]
]}

----------
- assay.text: molar heat capacity at constant pressure
- recorded.conditions: 298.15 K; 14000 kPa; Liquid; Small sample (50 mg) DSC
The compounds listed here are annotated with their molar heat capacity at constant pressure.
quantity: molar heat capacity at constant pressure (J/K/mol)

{"columns": ["compound", "quantity", "recorded.measurement"],
 "data": [
  ["CCCCCCCC[n+]1ccn(C)c1.F[B-](F)(F)F [1-methyl-3-octylimidazolium tetrafluoroborate]", "molar heat capacity at constant pressure", 500.23],
  ["CCCCCCn1cc[n+](C)c1.F[B-](F)(F)F [1-hexyl-3-methylimidazolium tetrafluoroborate]", "molar heat capacity at constant pressure", 430.07],
  ["CCCCn1cc[n+](C)c1.F[B-](F)(F)F [1-butyl-3-methylimidazolium tetrafluoroborate]", "molar heat capacity at constant pressure", 366.31],
  ["CCn1cc[n+](C)c1.F[B-](F)(F)F [1-ethyl-3-methylimidazolium tetrafluoroborate]", "molar heat capacity at constant pressure", 305.08]
]}

----------
- assay.text: molar heat capacity at constant pressure
- recorded.conditions: 303.15 K; 50000 kPa; Liquid; Small sample (50 mg) DSC
quantity: molar heat capacity at constant pressure (J/K/mol)

{"columns": ["compound", "recorded.measurement"],
 "data": [
  ["CCCCn1cc[n+](C)c1.F[B-](F)(F)F [1-butyl-3-methylimidazolium tetrafluoroborate]", 368.69],
  ["CCn1cc[n+](C)c1.F[B-](F)(F)F [1-ethyl-3-methylimidazolium tetrafluoroborate]", 307.37],
  ["CCCCCCn1cc[n+](C)c1.F[B-](F)(F)F [1-hexyl-3-methylimidazolium tetrafluoroborate]", 433.28],
  ["CCCCCCCC[n+]1ccn(C)c1.F[B-](F)(F)F [1-methyl-3-octylimidazolium tetrafluoroborate]", 503.4]
]}

----------
- assay.text: molar heat capacity at constant pressure
- recorded.conditions: 323.15 K; 30000 kPa; Liquid; Small sample (50 mg) DSC
As shown below, each of these compounds has a reported molar heat capacity at constant pressure value.

{"columns": ["compound", "molar heat capacity at constant pressure / J/K/mol"],
 "data": [
  ["CCCCn1cc[n+](C)c1.F[B-](F)(F)F [1-butyl-3-methylimidazolium tetrafluoroborate]", 377.67],
  ["CCn1cc[n+](C)c1.F[B-](F)(F)F [1-ethyl-3-methylimidazolium tetrafluoroborate]", 314.63],
  ["CCCCCCCC[n+]1ccn(C)c1.F[B-](F)(F)F [1-methyl-3-octylimidazolium tetrafluoroborate]", 514.43],
  ["CCCCCCn1cc[n+](C)c1.F[B-](F)(F)F [1-hexyl-3-methylimidazolium tetrafluoroborate]", 444.09]
]}

----------
- assay.text: molar heat capacity at constant pressure
- recorded.conditions: 313.15 K; 14000 kPa; Liquid; Small sample (50 mg) DSC
Listing of recorded molar heat capacity at constant pressure by entry.

{"columns": ["compound", "unit.name", "molar heat capacity at constant pressure"],
 "data": [
  ["CCCCCCCC[n+]1ccn(C)c1.F[B-](F)(F)F [1-methyl-3-octylimidazolium tetrafluoroborate]", "J/K/mol", 509.36],
  ["CCn1cc[n+](C)c1.F[B-](F)(F)F [1-ethyl-3-methylimidazolium tetrafluoroborate]", "J/K/mol", 310.45],
  ["CCCCCCn1cc[n+](C)c1.F[B-](F)(F)F [1-hexyl-3-methylimidazolium tetrafluoroborate]", "J/K/mol", 438.03],
  ["CCCCn1cc[n+](C)c1.F[B-](F)(F)F [1-butyl-3-methylimidazolium tetrafluoroborate]", "J/K/mol", 372.8]
]}
